Where do the numbers come from? From PubChem BioAssay (NCI).

system: UO-31 renal; experiment: NCI tumour cell line growth inhibition, 48 h; in the data active means GI50 below about 0.43 µM; inactive means the rest
Possible outcomes: Yes for active, No for inactive

> print(dat)
                                   molecule  target.or.system  assigned.label
1   Clc1ccc2c(NCCCNCc3ccc4c(c3)OCO4)ccnc2c1       UO-31 renal              No
2  Cc1nc(N(C)C)nc(-c2cccc(-c3ccn(CCN(C)C)n3)c2)c1C       UO-31 renal              No
3  COc1ccc2c(c1)cn1c3ccc(OC)cc3[nH]c(=O)c21       UO-31 renal             Yes
4  CCCCCCCCCCCC(=O)[O][Sn]([CH2]CCC)([CH2]CCC)[CH2]CCC       UO-31 renal             Yes
5  COc1ccc2nc3c(cc2c1)C(=O)CC(C(F)(F)F)C3 (stereo not given)       UO-31 renal              No

----------
Reported TGI values for a set of compounds
tested on: SR leukemia; experiment: NCI tumour cell line growth inhibition, 48 h
REPORTED_METRIC: TGI

> print(dat)
                                    compound  reported.metric  observed.result
 1  COc1ccc(C(CC(=O)c2ccc(O)cc2)C(C(=O)c2ccc(O)cc2)C(c2ccc(OC)cc2)C2C(=O)NC(=S)NC2=O)cc1 (configuration not stated)              TGI         > 100 µM
 2        NC(=O)NC(=O)c1cccc(C(=O)NC(N)=O)n1              TGI         > 100 µM
 3  CCOC(=O)C1=CN(Cc2ccccc2)C2ON=C(c3ccc(Cl)cc3)C2C1 (configuration not stated)              TGI          97.4 µM
 4  O=c1[nH]nc(-c2ccccc2)c2[nH]c3c(c12)CCCc1ccccc1-3              TGI          69.9 µM
 5  CC1=NN(c2cccc(S(=O)(=O)O)c2)C2(C1)SCC(=O)N2c1nc2ccccc2s1 (configuration not stated)              TGI         > 100 µM
 6  O=C(CCCN1CCC(Nc2ccc(F)cc2)(c2nnnn2C2CCCCC2)CC1)c1ccc(F)cc1              TGI         > 100 µM
 7  C[C@H](N)C(=O)Nc1ccc(-c2nc3ccccc3s2)cc1Cl              TGI          13.9 µM
 8   Nc1nc(-c2ccccc2Cl)cc(-c2ccc(Cl)cc2Cl)n1              TGI         > 100 µM
 9  CC(C)(C)OC(=O)/C=C/[C@@H](CCC(=O)/C=C/[C@H](/C=C\CCCC(=O)O)NC1(c2ccccc2)c2ccccc2-c2ccccc21)O[Si](C)(C)C(C)(C)C              TGI         > 100 µM
10  OC(c1cc2c(Cl)cc(Cl)cc2c2cc(C(F)(F)F)ccc12)C1CCCCN1 (configuration not stated)              TGI          3.95 µM
11  COc1ccccc1NC(=O)C(=O)C(C#N)CC(C)(C)C=O (configuration not stated)              TGI         > 100 µM
12  CCOC(=O)CCNC(=O)c1cc(C)cc2c1Oc1c(cc(C)cc1C(=O)NCCC(=O)OCC)S2              TGI         > 100 µM
